target: T1, recombinant human c-Met/Fc chimera (R&D systems) (human); assay: HGF-competition Alphascreen
T1 construct: R&D Systems 358-MT/CF, expressed in NS0 cells; also called hc-Met/Fc; hu c-Met/Fc
T1 sequence (chain, as listed by the source mutant limits assumed): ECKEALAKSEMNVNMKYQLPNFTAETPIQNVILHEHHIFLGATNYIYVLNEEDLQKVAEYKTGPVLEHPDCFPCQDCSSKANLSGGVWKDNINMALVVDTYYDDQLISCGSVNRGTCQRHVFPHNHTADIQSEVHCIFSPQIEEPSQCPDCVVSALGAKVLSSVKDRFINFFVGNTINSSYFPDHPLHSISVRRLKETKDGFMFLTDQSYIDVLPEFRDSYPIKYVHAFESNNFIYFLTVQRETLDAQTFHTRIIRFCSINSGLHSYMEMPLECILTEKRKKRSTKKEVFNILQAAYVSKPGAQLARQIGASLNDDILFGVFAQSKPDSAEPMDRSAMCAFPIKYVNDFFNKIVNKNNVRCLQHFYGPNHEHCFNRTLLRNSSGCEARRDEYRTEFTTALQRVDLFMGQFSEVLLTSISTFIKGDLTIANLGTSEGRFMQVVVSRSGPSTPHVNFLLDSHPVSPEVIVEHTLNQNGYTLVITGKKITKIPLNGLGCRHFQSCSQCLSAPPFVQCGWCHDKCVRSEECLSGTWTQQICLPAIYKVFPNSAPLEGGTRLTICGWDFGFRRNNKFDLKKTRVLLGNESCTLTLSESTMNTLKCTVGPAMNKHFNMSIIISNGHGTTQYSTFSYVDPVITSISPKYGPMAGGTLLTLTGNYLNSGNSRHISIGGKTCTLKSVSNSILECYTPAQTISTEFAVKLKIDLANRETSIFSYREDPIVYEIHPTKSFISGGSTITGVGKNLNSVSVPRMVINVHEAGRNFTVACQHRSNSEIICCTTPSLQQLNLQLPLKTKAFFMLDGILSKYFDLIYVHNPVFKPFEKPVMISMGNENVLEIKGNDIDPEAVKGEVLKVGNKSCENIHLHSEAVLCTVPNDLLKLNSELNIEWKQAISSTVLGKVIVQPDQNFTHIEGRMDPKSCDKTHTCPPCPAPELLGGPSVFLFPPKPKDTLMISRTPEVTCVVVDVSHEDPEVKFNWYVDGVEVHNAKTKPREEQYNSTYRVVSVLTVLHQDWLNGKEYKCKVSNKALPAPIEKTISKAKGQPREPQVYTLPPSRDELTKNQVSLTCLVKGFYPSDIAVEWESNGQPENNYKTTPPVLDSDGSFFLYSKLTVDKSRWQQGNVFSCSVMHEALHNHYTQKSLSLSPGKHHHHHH
endpoint: IC50

Which IC50 is reported for this binder? A007900184 (33H10-3xFLAG-His6) (VHH, the entry holds the tag; also called A007900184 (wt)) VHH: EVQLVESGGGLVQAGGSLRLSCAASGFTFDDYAIGWFRQAPGEEREGVSSISSTYGLTYYADSVKGRFTISSSNAKNTVYLQMNNLKPEDTAVYYCAATPIERLGLDAYEYDYWGQGTLVTVSS
0.61 nM

Which IC50 is reported for this binder? A007901252 (VHH, 33H10 variant, 3xFLAG-His6 tagged; the entry holds the tag) VHH: EVQLVESGGGLVQPGGSLRLSCAASGFAFDDYAIGWFRQAPGKERLGVSSISSTYGLTYYADSVKGRFTISSDNSKNTVYLQMNSLRPEDTAVYYCAATPIGLIGLDAYEYDYWGQGTLVTVSS
0.12 nM

Which IC50 is reported for this binder? A007901247 (VHH, 33H10 variant, 3xFLAG-His6 tagged; the entry holds the tag) VHH: EVQLVESGGGLVQPGGSLRLSCAASGFTFDDYAIGWFRQAPGKEREGVSSISSTYGLTYYADSVKGRFTISSDNSKNTVYLQMNSLRPEDTAVYYCAATPIGLIGLDAYEYDYWGQGTLVTVSS
0.27 nM

Which IC50 is reported for this binder? A007901253 (VHH, 33H10 variant, 3xFLAG-His6 tagged; the entry holds the tag) VHH: EVQLVESGGGLVQPGGSLRLSCAASGFTFDDYAIGWFRQAPGEEREGVSSISSTYGLTYYADPVKGRFTISSDNSKNTVYLQMNSLRPEDTAVYYCAATPIGLIGLDAYEYDYWGQGTLVTVSS
0.071 nM

Which IC50 is reported for this binder? A007901246 (VHH, 33H10 variant, 3xFLAG-His6 tagged; the entry holds the tag; also called monovalent form of A007901256) VHH: EVQLVESGGGLVQPGGSLRLSCAASGFAFDDYAIGWFRQAPGEEREGVSSISSTYGLTYYADSVKGRFTISSDNSKNTVYLQMNSLRPEDTAVYYCAATPIGLIGLDAYEYDYWGQGTLVTVSS
0.089 nM

Origin of measurements: patent US20120244164A1
